test: maximum Plasma concentration in Dog was determined after Peroral administration; assay type: ADME, organism-based, Canis lupus familiaris; set-up: route oral; conditions: po
readout.name: Cmax (ng/mL)
Express the result in ng/mL but write the number alone.

According to the records, this molecule CO/N=C1\CN(c2nc3c(cc2F)c(=O)c(C(=O)O)cn3C2CC2)CC1CN (stereo in doubt; 20) [GEMIFLOXACIN] displays Cmax of 1340

---

test system: Enterobacter cloacae; test: Minimum inhibitory concentration (MIC) against Enterobacter cloacae P99; type: functional
readout.name: MIC (mg/L)
Express the result in mg/L but write the number alone.

Before answering, review these 8 worked examples.
NCC1CCN(c2nc3c(cc2F)c(=O)c(C(=O)O)cn3C2CC2)C1 (stereo not drawn); 0.031
CCn1cc(C(=O)O)c(=O)c2cc(F)c(N3C/C(=N\OC)C(CN)C3)c(F)c21 (stereo not drawn); 0.13
CO/N=C1\CN(c2nc3c(cc2F)c(=O)c(C(=O)O)cn3C2CC2)CC1CN(C)C (stereo not drawn); 0.13
NCC1CN(c2nc3c(cc2F)c(=O)c(C(=O)O)cn3C2CC2)C/C1=N\O (stereo not drawn); 0.031
NCC1CN(c2nc3c(cc2F)c(=O)c(C(=O)O)cn3C2CC2)C/C1=N\Oc1ccccc1 (stereo not drawn); 0.031
CO/N=C1\CN(c2cc3c(cc2F)c(=O)c(C(=O)O)cn3C2CC2)CC1CN (stereo not drawn); 0.008
CO/N=C1\CN(c2c(F)cc3c(=O)c(C(=O)O)cn(C4CC4)c3c2Cl)CC1CN (stereo not drawn); 0.063
CO/N=C1\CN(c2c(F)cc3c(=O)c(C(=O)O)cn(C4CC4)c3c2OC)CC1CN (stereo not drawn); 0.063

According to the records, this compound CO/N=C1\CN(c2c(F)cc3c(=O)c(C(=O)O)cn(C4CC4)c3c2F)CC1CN (stereo not drawn) displays MIC of 0.016

According to the records, this compound CNCC1CN(c2nc3c(cc2F)c(=O)c(C(=O)O)cn3C2CC2)C/C1=N\OC (stereo not drawn) displays MIC of 0.13

According to the records, this compound CO/N=C1\CN(c2nc3c(cc2F)c(=O)c(C(=O)O)cn3-c2ccc(F)cc2F)CC1CN (stereo not drawn) displays MIC of 0.063

These entries and their values trace back to ChEMBL document CHEMBL1130203.
